Below: a set of entries, each annotated with reported pEC50.
tested target: Glycogen synthase kinase-3 beta (Homo sapiens)
test description: concentration-response blocking of human GSK3B – biochemical, luminescence, cell-free homogeneous, retest, dose response (AID 434954)
Bear in mind: pEC50 is minus log10 of a mol/L concentration; give just that figure.

Cc1c(Cc2ccccc2)c(=O)oc2cc(O)cc(O)c12 ... 4.80
Nc1nonc1-n1nnc(C(=O)NN=Cc2c(F)cccc2Cl)c1-c1ccc2c(c1)OCO2 ... 5.80

// field: pEC50; key: `COC(=O)c1nnn(-c2nonc2N)c1CSc1nnc(C)s1` ; value = 4.34

----------
tested target: Glycogen synthase kinase-3 beta (Homo sapiens, UniProt P49841)
Sequence (P49841 whole entry): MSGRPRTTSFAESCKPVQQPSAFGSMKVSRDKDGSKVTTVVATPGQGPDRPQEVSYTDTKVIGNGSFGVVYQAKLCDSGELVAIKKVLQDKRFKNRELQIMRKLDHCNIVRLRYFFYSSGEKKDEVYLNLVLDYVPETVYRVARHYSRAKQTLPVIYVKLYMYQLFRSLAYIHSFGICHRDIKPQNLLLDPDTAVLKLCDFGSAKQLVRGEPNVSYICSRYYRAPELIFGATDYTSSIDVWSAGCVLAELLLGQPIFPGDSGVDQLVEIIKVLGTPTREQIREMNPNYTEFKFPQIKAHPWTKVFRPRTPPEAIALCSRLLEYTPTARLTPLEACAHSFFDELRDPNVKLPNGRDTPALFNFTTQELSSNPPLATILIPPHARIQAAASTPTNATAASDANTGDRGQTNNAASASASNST
test description: concentration-response blocking of human GSK3B – biochemical, luminescence, cell-free homogeneous, retest, dose response (AID 434954)
pEC50: −log10 of the molar value.
quantity: pEC50

Recorded pEC50, per entry:
O=[N+]([O-])c1ccc(-n2nnnc2-c2ccccc2)c([N+](=O)[O-])c1 ... < 3.52
Cc1ccc(Nc2nc(N)c([N+](=O)[O-])c(NCCO)n2)cc1 ... 4.10
Cc1ccc(SCC(=O)Nc2ccc3c(c2)C(=O)NC3=O)cc1 ... < 3.52

Quick note, pEC50 for `COC(CNc1nc(SC)nc2sc3c(c12)CCN(C)C3)OC` landed at < 3.52

In plain terms, `CC1CCN(c2nc3c(N)ncnc3n2[C@@H]2O[C@H](CO)[C@@H](O)[C@H]2O)CC1` has a documented pEC50 of < 3.52

Entry O=C1NC(=O)c2c(NC(=O)C3CCCO3)cccc21 (stereo unspecified) ; pEC50 = < 3.52

Per the record, `Nc1ncnc2c1ccn2[C@@H]1O[C@H](CO)[C@@H](O)[C@H]1O` has pEC50 of < 3.52

Record `CCN1CCN(Cc2c(O)ccc3c2O/C(=C\C=C\c2ccccc2)C3=O)CC1` , field pEC50: < 3.52

Entry under test: `COc1ccc(-c2c(N)nnc3c2[nH]c2ccccc23)cc1OC` . Its pEC50 was < 3.52

get_value(item= `CN(C)c1ccc(-c2nc3ccccc3n2C)cc1` , readout=pEC50) returns < 3.52

In plain terms, `Cc1ccc(CN=Nc2ncnc3nc[nH]c23)cc1` has a documented pEC50 of 4.52

get_value(item= `CNc1nc(-c2ccccc2)nc(-c2ccccc2)c1C#N` , readout=pEC50) returns < 3.52

Data origin: BindingDB's records for doi:10.7270/Q2TX3CTT
